Tested on: MS2 coat protein
Experiment Notes: apparent KD of MS2 coat protein; designed switch direction (-1 OFF switch, 1 ON switch): 1; higher = weaker reporter binding
Particulars: input ligand: microRNA oligo, concentration not stated
Metric: apparent KD of MS2 coat protein (nM)
One number for each entry, in nM.

[[record]]
polymer_sequence = "UAUCCAUAGAUAGGAUAUUAGUGAACAUGAGGAUCACCCAUGUUUUGCUUGGUUUUAAGCUAAUCUGAGAAGGAUCUUGAUGAA [SameState NG2 #6] (Eterna round: R96, puzzle: Same State NG 2)"
subject_of_test = "MS2 coat protein"
metric = "apparent KD of MS2 coat protein"
data_value = 33.3

[[record]]
polymer_sequence = "UGUUGGAAGUGAGGAUAUGGGAAAGGAAGUGUACCAGAAGGCACAUCUAGCCGGAACAUGAGGAUCACCCAUGUACCACACUAC [PowerStrip SSNG 1.15] (Eterna round: R96, puzzle: Same State NG 1)"
subject_of_test = "MS2 coat protein"
metric = "apparent KD of MS2 coat protein"
data_value = 24.6


Dear colleague, could you please provide apparent KD of MS2 coat protein for the sequences listed below?
1. GCUCGGCUGAUGGCCUACAUGAGGAUCACCCAUGUGACUGGGCAGGAUAUCUAGAUGCAGGAUGUAGAGAAGGGCCUGCCGAGC [SameState NG3 #42] (Eterna round: R96, puzzle: Same State NG 3)
2. GCGGAAACUCACAUGAGGAUCACCCAUGUUCCGGAAACGGCACAGGAUAUCUGUCCGAAAAGGUCAGAGAAGGGUGAAAUCCGC [Fiskers NG3ss - 92] (Eterna round: R96, puzzle: Same State NG 3)
3. GGAUGAUUAAUAGGAUAUUAUUUGUAAAAUGGUUAAGAAGGAUUAAUGAUUUAAACGACCAGAUACAUGAGGAUCACCCAUGUA [JR_SSNG1_Sub091] (Eterna round: R96, puzzle: Same State NG 1)

// result
224
9.95
19.5

###

System: MS2 coat protein
Experiment Notes: apparent KD of MS2 coat protein; designed switch direction (-1 OFF switch, 1 ON switch): -1; higher = weaker reporter binding
Particulars: Eterna round: R95; input ligand: microRNA oligo, concentration not stated
Would you please tag the item yes (1) when its apparent KD of MS2 coat protein is 40 nM or above, and no (0) when it is below?

[[record]]
polymer_sequence = "UCGCUGCGAGGAUAUACAUGAGGAUCACCCAUGUACGGGUCCGGGUCUUUGUCGAUUGGUAGAAGGCGCAGUGA [JL Laongeedie mod 10] (puzzle: Exclusion 3)"
qualitative_label = "yes (1)"

[[record]]
polymer_sequence = "AAGUACCGUCACGAUAGUGAUGGUACAACAAGUGAAUGUACAUGAGGAUCACCCAUGUCCUCUUUUGCUCGUCUUAU [Sensor 3 - 92] (puzzle: Sensor v3, turn-off variant 2)"
qualitative_label = "no (0)"

[[record]]
polymer_sequence = "UGUGCGUAUGUGAGGAUAUGCUGGUCCUUGGAUCGGCAGAAGGCACAUGAGGAUCACCCAUGUGGUGUCGUACG [salish99_Bmod_ex4_079] (puzzle: Brourd's mod of Exclusion 4)"
qualitative_label = "yes (1)"

[[record]]
polymer_sequence = "GCCAGAGCAGGAUAUUCAUUAUAUCACAUGAGGAUCACCCAUGUCCAGCGAAAGCUGGAGGGAGAAGGGCUCUGGC [Fiskers Ex 5 - 24] (puzzle: Exclusion 5)"
qualitative_label = "yes (1)"

[[record]]
polymer_sequence = "AAGACCUUUGUCAGGAUAUCAAGGCAAUUCGCCGGUGAGAAGGGACAUGAGGAUCACCCAUGUAAAGAAAAGAA [Rausedlave] (puzzle: Brourd's mod of Exclusion 4)"
qualitative_label = "no (0)"

[[record]]
polymer_sequence = "GGUUGGCGAGGAUAUACAUGAGGAUCACCCAUGUGAGAGAAAAAACUGAGGAAGAAAAGUAGAAGGCGCUGACG [salish99_ex3_r3_026] (puzzle: Exclusion 3)"
qualitative_label = "no (0)"

[[record]]
polymer_sequence = "UGCAUGCUAGGAUAUACGGGACAUUAGGGUUCGUCGUAUGGACAUGAGGAUCACCCAUGUAGAAGGAGCGUGCU [Mod4 of JL-ex2-2.15 mat747 mod] (puzzle: Exclusion 2)"
qualitative_label = "no (0)"

[[record]]
polymer_sequence = "GGUGCGUAUGUGAGGAUAUGCUGGUCCUUGGAUCAGCAGAAGGCACAUGAGGAUCACCCAUGUGGUGUCGUACU [salish99_Bmod_Ex4_013] (puzzle: Brourd's mod of Exclusion 4)"
qualitative_label = "yes (1)"


Now for a further sequence.
// query hey, is apparent KD of MS2 coat protein for this one >= 40 nM? GAGAAGGUAGGAUAUACGAAUAAAUAGGGUAGUAAUAAGACACAUGAGGAUCACCCAUGUAGAAGGACCAAGAG [Mat - Exclusion 2 - Mod of my Tesla design - D38] (puzzle: Exclusion 2)
// result no (0)
